This collection of values is drawn from PubChem BioAssay AID1996.

settings: buffer; pH 7.4; 200.0 µM
endpoint-name: solubility kinetic (µg/mL)
One number for each entry, in µg/mL.

Example compounds with recorded solubility kinetic:
CC1CCC(NC(=O)Cn2c(=O)oc3ccccc32)CC1 (centres undefined); 4.9
Cl.c1ccc(OCC2CCNCC2)nc1; 33.7
Cn1c(=O)c2c(O)c(C=Nc3ccc(F)cc3)c(=O)n(C)c2n(C)c1=O; 32.6
Brc1ccccc1OCCCCN1CCCCC1; 39.1
COc1ccc(N2CC(C(=O)NCc3ccco3)CC2=O)cc1 (centres undefined); 32.2
FC(F)Oc1ccc(NC(=S)NC2CCCCCCC2)cc1; 0.7

Lab note: each compound below needs its solubility kinetic filled in.
1. Cc1cccc(OCCCN2C(=O)C(=O)c3cc(C)ccc32)c1
2. CC(C)N(C(C)C)S(=O)(=O)c1ccc(Cl)nc1

Ans.
[10.7, 32.4]
